SYSTEM_TESTED: Meso-diaminopimelate D-dehydrogenase (Porphyromonas gingivalis (strain ATCC BAA-308 / W83))
Sequence (Q7MW40 whole entry): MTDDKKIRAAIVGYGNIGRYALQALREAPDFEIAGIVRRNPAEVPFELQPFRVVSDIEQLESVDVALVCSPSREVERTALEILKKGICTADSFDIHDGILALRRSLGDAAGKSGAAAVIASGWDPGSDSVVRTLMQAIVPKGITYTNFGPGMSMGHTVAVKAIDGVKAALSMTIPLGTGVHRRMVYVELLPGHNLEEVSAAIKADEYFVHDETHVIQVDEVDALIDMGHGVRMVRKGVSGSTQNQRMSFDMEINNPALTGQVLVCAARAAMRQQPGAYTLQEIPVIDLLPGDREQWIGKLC
METHOD_SUMMARY: Inhibition of Porphyromonas gingivalis m-Ddh expressed in Escherichia coli BL21 (DE3) pLysS at pH 10.5 using meso-diaminopimelate as substrate by spectrophotometric method
QUANTITY_NAME: IC50 (µM)
One number for each entry, in µM.

Inquiry: Answer with the recorded IC50 for the molecule listed here: N[C@@H](C[C@H]1CC(C(=O)O)=NO1)C(=O)O
Reply text: 211

###

SYSTEM_TESTED: Meso-diaminopimelate D-dehydrogenase (Porphyromonas gingivalis (strain ATCC BAA-308 / W83))
METHOD_SUMMARY: Inhibition of Porphyromonas gingivalis m-Ddh expressed in Escherichia coli BL21 (DE3) pLysS at pH 7.8 using meso-diaminopimelate as substrate by spectrophotometric method
QUANTITY_NAME: IC50
Answer by giving the amount and then stating its unit.

Inquiry: For the compound N[C@@H](C[C@H]1CC(C(=O)O)=NO1)C(=O)O , give its measured IC50 value.
Reply text: 14.9 µM
